The measurements presented in this section are drawn from ChEMBL document CHEMBL1142279.

Activity values, listed per item
- System Tested: RAC-beta serine/threonine-protein kinase (Homo sapiens) (UniProt P31751)
- Sequence (P31751 whole entry): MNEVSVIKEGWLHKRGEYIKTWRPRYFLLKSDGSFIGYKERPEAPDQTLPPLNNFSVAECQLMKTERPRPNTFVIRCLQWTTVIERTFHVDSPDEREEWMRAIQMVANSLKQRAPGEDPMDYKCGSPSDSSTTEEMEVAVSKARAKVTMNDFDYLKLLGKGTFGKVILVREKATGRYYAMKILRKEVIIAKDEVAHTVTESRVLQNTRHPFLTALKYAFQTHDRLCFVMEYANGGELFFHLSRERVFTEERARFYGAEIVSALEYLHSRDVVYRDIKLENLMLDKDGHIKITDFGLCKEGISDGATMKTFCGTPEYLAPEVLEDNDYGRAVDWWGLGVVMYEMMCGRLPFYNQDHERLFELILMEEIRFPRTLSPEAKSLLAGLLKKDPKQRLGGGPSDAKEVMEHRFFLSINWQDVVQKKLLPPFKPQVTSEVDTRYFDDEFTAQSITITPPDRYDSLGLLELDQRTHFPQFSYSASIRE
- Experiment Description: Inhibition of human recombinant Akt2
I only need the number, in nM, no unit after it.

// below: answered molecules
Nc1nnc(-c2cnc(-c3ccc(CN4CCC(n5c(=O)[nH]c6ncccc65)CC4)cc3)c(-c3ccccc3)c2)s1 ... 73
Nc1ncnc2c1cnn2C1CCN(Cc2ccc(-c3ncc(-c4ncccn4)cc3-c3ccccc3)cc2)CC1 ... 62
Nc1ncnc2c1ncn2C1CCN(Cc2ccc(-c3ncc(-c4nnn[nH]4)cc3-c3ccccc3)cc2)CC1 ... 105
Nc1nnc(-c2cnc(-c3ccc(CN4CCC(c5n[nH]c(-c6ccccn6)n5)CC4)cc3)c(-c3ccccc3)c2)s1 ... 22
Nc1nnc(-c2cnc(-c3ccc(CN4CCC(n5cc(-c6ccccn6)cn5)CC4)cc3)c(-c3ccccc3)c2)s1 ... 90
Nc1nnc(-c2cnc(-c3ccc(CN4CCC(n5cc(-c6cnccn6)cn5)CC4)cc3)c(-c3ccccc3)c2)s1 ... 51
Nc1nnc(-c2cnc(-c3ccc(CNCCC(=O)c4ccccc4N)cc3)c(-c3ccccc3)c2)s1 ... 30

The reported RAC-beta serine/threonine-protein kinase (Homo sapiens) (UniProt P31751) Activity of "O=c1[nH]c2ccccc2n1C1CCN(Cc2ccc(-c3ncc(-c4nnn[nH]4)cc3-c3ccccc3)cc2)CC1" is 150
